# Test system: MDR1
# EXPERIMENT_SUMMARY: MDCK-MDR1 permeability assay, blood-brain-barrier (BBB) penetration potential
# Assay type: in vitro ADME
# CONDITIONS_USED: dog, MDCK-MDR1, pH 7.4
MEASURED_PROPERTY: Papp A→B at 120 min, 5 μM (×10⁻⁶ cm/s)
Kindly provide the numeric value in ×10⁻⁶ cm/s only, without the unit symbol.

Observe how each entry below is paired with its result.
CN1[C@@H]2CCC[C@H]1C[C@H](Oc1ccc(-c3ccc(-n4ccnc4)cc3O)nn1)C2 [compound 302]: 3.09
CN1C2CC[C@@H]1C[C@@H](Oc1ccc(-c3ccc(-n4ccnc4)cc3O)nn1)C2 [compound 301]: 2.34

Note: attention shifts to another entry.
Documented Papp A→B at 120 min, 5 μM of CN1[C@@H]2CC[C@H]1C[C@H](Oc1ccc(-c3ccc(-c4cn[nH]c4)cc3O)nn1)C2 [compound 306] : 1.19

###

# Test system: MDR1-MDCK cell monolayers
# EXPERIMENT_SUMMARY: MDCK-MDR1 permeability assay, blood-brain-barrier (BBB) penetration potential
# Assay type: in vitro ADME
# CONDITIONS_USED: efflux ratio
MEASURED_PROPERTY: General MDCK-MDR1: Efflux

COCC12CCC(CC(N(C)c3ccc(-c4cc(F)c(-n5ccnc5)cc4O)nn3)C1)N2 (single isomer, unassigned; ent2) [315-Ent2]: 117
COCC12CCCC(CC(Oc3ccc(-c4ccc(-c5cnn(C)c5)cc4O)nn3)C1)N2 (single isomer, unassigned; ent1) [316-Ent1]: 43
CN(c1ccc(-c2ccc(-n3ccnc3)cc2O)nn1)[C@@H]1C[C@H]2CC[C@@](C)(C1)N2 (single isomer, unassigned; ent1): 137
COCC12CCC(CC(N(C)c3ccc(-c4cc(F)c(-n5ccnc5)cc4O)nn3)C1)N2 (single isomer, unassigned; ent1) [315-Ent1]: 103

The observed General MDCK-MDR1: Efflux for COc1cc(-c2ccc(-c3ccc(N(C)[C@@H]4C[C@H]5CC[C@@](C)(C4)N5)nn3)c(O)c2)cnn1 (single isomer, unassigned; ent1) when tested with MDR1-MDCK cell monolayers stands at 130

The observed General MDCK-MDR1: Efflux for CN(c1ccc(-c2ccc(-n3ccnc3)cc2O)nn1)C1CC2CCC(C)(C1)N2 (single isomer, unassigned; ent2) when tested with MDR1-MDCK cell monolayers stands at 109

###

# Tested on: MDR1-MDCK cell monolayers
# EXPERIMENT_SUMMARY: MDCK-MDR1 permeability assay, blood-brain-barrier (BBB) penetration potential
# Format: in vitro ADME
# CONDITIONS_USED: B-A direction
General MDCK-MDR1: % Recov B-A by entry:
Kindly provide the numeric value in % only, without the unit symbol.

Observe how each entry below is paired with its result.
CN(c1ccc(-c2ccc(-c3cnn(C)c3)cc2O)nn1)C1CC2CCC(C)(N2)C1F (single isomer, unassigned; ent1): 98
CC12CCC(CC(Oc3ccc(-c4ccc(-c5cn[nH]c5)cc4O)nn3)C1)N2 (single isomer, unassigned; ent2): 86
C[C@]12CC[C@H](C[C@@H](Oc3ccc(-c4ccc(-n5ccnc5)cc4O)nn3)C1)N2 (single isomer, unassigned; ent1): 90

Documented General MDCK-MDR1: % Recov B-A of COCC12CCC(CC(N(C)c3ccc(-c4cc(F)c(-n5ccnc5)cc4O)nn3)C1)N2 (single isomer, unassigned; ent2) [315-Ent2] : 107

Documented General MDCK-MDR1: % Recov B-A of CC12CCC(CC(Oc3ccc(-c4ccc(-n5ccnc5)cc4O)nn3)C1)N2 (single isomer, unassigned; ent2) : 88

Documented General MDCK-MDR1: % Recov B-A of COc1cc(-c2ccc(-c3ccc(N(C)[C@@H]4C[C@H]5CCC[C@@](C)(C4)N5)nn3)c(O)c2)cnn1 (single isomer, unassigned; ent1) : 96

###

EC50 by entry:
# Tested on: cryptic exon within intron 49 of the Huntingtin (HTT) transcripts, GM04724 (CAG 70/20) Huntington's disease patient lymphoblasts
# EXPERIMENT_SUMMARY: Quantitative splicing assay (HTT)
# Type: cell-based, human
# CONDITIONS_USED: average, read-out: HTT Potency - Splicing: E49-50 EC50 (average)

Observe how each entry below is paired with its result.
COCC12CCC(CC(N(C)c3ccc(-c4cc(F)c(-n5ccnc5)cc4O)nn3)C1)N2 (single isomer, unassigned; ent2) [315-Ent2]: 0.01 to 15 nM
COCC12CCCC(CC(Oc3ccc(-c4ccc(-c5cnn(C)c5)cc4O)nn3)C1)N2 (single isomer, unassigned; ent2) [316-Ent2]: 16 to 50 nM
CN(c1ccc(-c2ccc(-n3ccnc3)cc2O)nn1)C1CC2CCC(C)(C1)N2 (single isomer, unassigned; ent2) [304-Ent2]: 0.01 to 15 nM
COCC12CCCC(CC(Oc3ccc(-c4ccc(-c5cnn(C)c5)cc4O)nn3)C1)N2 (single isomer, unassigned; ent1) [316-Ent1]: 16 to 50 nM
CN(c1ccc(-c2ccc(-n3ccnc3)cc2O)nn1)[C@@H]1C[C@H]2CC[C@@](C)(C1)N2 (single isomer, unassigned; ent1) [304-Ent1]: 0.01 to 15 nM

Documented EC50 of CN(c1ccc(-c2ccc(-c3cnn(C)c3)cc2O)nn1)C1CC2CCC(C)(N2)C1F (single isomer, unassigned; ent1) [317-Ent1] : 0.01 to 15 nM

Documented EC50 of CC12CCC(CC(Oc3ccc(-c4ccc(-n5ccnc5)cc4O)nn3)C1)N2 (single isomer, unassigned; ent2) [303-Ent2] : 0.01 to 15 nM

Documented EC50 of COCC12CCC(CC(N(C)c3ccc(-c4cc(F)c(-n5ccnc5)cc4O)nn3)C1)N2 (single isomer, unassigned; ent1) [315-Ent1] : 0.01 to 15 nM

###

# System: MDR1-MDCK cell monolayers
# EXPERIMENT_SUMMARY: MDCK-MDR1 permeability assay, blood-brain-barrier (BBB) penetration potential
# Type: in vitro ADME
# CONDITIONS_USED: B-A direction
General MDCK-MDR1: % Recov B-A by entry:

COc1cc(-c2ccc(-c3ccc(N(C)[C@@H]4C[C@H]5CC[C@@](C)(C4)N5)nn3)c(O)c2)cnn1 (single isomer, unassigned; ent1): 89%
COc1cc(-c2ccc(-c3ccc(N(C)C4CC5CCC(C)(C4)N5)nn3)c(O)c2)cnn1 (single isomer, unassigned; ent2): 80%

Note: attention shifts to another entry.
Documented General MDCK-MDR1: % Recov B-A of COCC12CCC(CC(N(C)c3ccc(-c4cc(F)c(-n5ccnc5)cc4O)nn3)C1)N2 (single isomer, unassigned; ent1) [315-Ent1] : 108%

###

efflux ratio at 120 min, 5 μM by entry:
# Test system: MDR1
# EXPERIMENT_SUMMARY: MDCK-MDR1 permeability assay, blood-brain-barrier (BBB) penetration potential
# Format: in vitro ADME
# CONDITIONS_USED: dog, MDCK-MDR1, pH 7.4
// return just the number, without any unit appended

Observe how each entry below is paired with its result.
CN1[C@@H]2CC[C@H]1C[C@H](Oc1ccc(-c3ccc(-c4cn[nH]c4)cc3O)nn1)C2: 47
CN1[C@@H]2CCC[C@H]1C[C@H](Oc1ccc(-c3ccc(-n4ccnc4)cc3O)nn1)C2: 18

Note: attention shifts to another entry.
The observed efflux ratio at 120 min, 5 μM for `CN1C2CC[C@@H]1C[C@@H](Oc1ccc(-c3ccc(-n4ccnc4)cc3O)nn1)C2` when tested with MDR1 stands at 21

###

General MDCK-MDR1: % Recov A-B by entry:
# Test system: MDR1-MDCK cell monolayers
# EXPERIMENT_SUMMARY: MDCK-MDR1 permeability assay, blood-brain-barrier (BBB) penetration potential
# Type: in vitro ADME
# CONDITIONS_USED: A-B direction
Kindly provide the numeric value in % only, without the unit symbol.

CN(c1ccc(-c2ccc(-c3cnn(C)c3)cc2O)nn1)C1CC2CCC(C)(N2)C1F (single isomer, unassigned; ent1): 73

Documented General MDCK-MDR1: % Recov A-B of COCC12CCCC(CC(Oc3ccc(-c4ccc(-c5cnn(C)c5)cc4O)nn3)C1)N2 (single isomer, unassigned; ent2) [316-Ent2] : 77

Documented General MDCK-MDR1: % Recov A-B of CC12CCC(CC(Oc3ccc(-c4ccc(-c5cn[nH]c5)cc4O)nn3)C1)N2 (single isomer, unassigned; ent2) : 91

###

# Tested on: mHTT protein
# EXPERIMENT_SUMMARY: mHTT protein assay, 2B7-MW1 Mesoscale Discovery (MSD)
# Type: cell-based, human
# CONDITIONS_USED: GM04724 lymphoblast cells, 48 hours, 2B7-MW1 MSD; average; read-out: HTT Potency - Protein & Cytotoxicity: EC50 mHTT (average)
MEASURED_PROPERTY: EC50

Observe how each entry below is paired with its result.
COc1cc(-c2ccc(-c3ccc(N(C)C4CC5CCCC(C)(C4)N5)nn3)c(O)c2)cnn1 (single isomer, unassigned; ent2): 0.01 to 15 nM
C[C@]12CC[C@H](C[C@@H](Oc3ccc(-c4ccc(-c5cn[nH]c5)cc4O)nn3)C1)N2 (single isomer, unassigned; ent1): 0.01 to 15 nM
CN(c1ccc(-c2ccc(-n3ccnc3)cc2O)nn1)C1CC2CCC(C)(C1)N2 (single isomer, unassigned; ent2): 0.01 to 15 nM
CN(c1ccc(-c2ccc(-c3cnn(C)c3)cc2O)nn1)C1CC2CCC(C)(N2)C1F (single isomer, unassigned; ent1): 0.01 to 15 nM
CC12CCC(CC(Oc3ccc(-c4ccc(-n5ccnc5)cc4O)nn3)C1)N2 (single isomer, unassigned; ent2): 0.01 to 15 nM

Documented EC50 of `CN1[C@@H]2CCC[C@H]1C[C@H](Oc1ccc(-c3ccc(-c4cn[nH]c4)cc3O)nn1)C2` : 51 to 100 nM

Documented EC50 of C[C@]12CC[C@H](C[C@@H](Oc3ccc(-c4ccc(-n5ccnc5)cc4O)nn3)C1)N2 (single isomer, unassigned; ent1) : 0.01 to 15 nM

Documented EC50 of COCC12CCCC(CC(Oc3ccc(-c4ccc(-c5cnn(C)c5)cc4O)nn3)C1)N2 (single isomer, unassigned; ent1) [316-Ent1] : 0.01 to 15 nM

Documented EC50 of CN(c1ccc(-c2ccc(-n3ccnc3)cc2O)nn1)[C@@H]1C[C@H]2CC[C@@](C)(C1)N2 (single isomer, unassigned; ent1) : 0.01 to 15 nM

Data origin: patent US20230067064A1
